biological target: hEP3A/Gqi5 (Homo sapiens); assay: FLIPR calcium signal study, EP3A; settings: read-out: Other Receptors hEP3A EC50
Sequence (P43115 whole entry): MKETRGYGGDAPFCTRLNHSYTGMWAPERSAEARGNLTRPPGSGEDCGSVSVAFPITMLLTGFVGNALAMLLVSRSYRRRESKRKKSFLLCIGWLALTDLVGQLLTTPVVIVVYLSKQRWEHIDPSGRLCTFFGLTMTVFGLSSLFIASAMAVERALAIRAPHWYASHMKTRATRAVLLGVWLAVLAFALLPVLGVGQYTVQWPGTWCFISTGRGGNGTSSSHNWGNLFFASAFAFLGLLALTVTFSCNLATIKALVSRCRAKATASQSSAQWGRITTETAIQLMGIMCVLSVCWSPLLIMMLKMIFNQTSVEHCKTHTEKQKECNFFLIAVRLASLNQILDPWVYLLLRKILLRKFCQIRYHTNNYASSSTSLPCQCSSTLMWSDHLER
metric-name: EC50 (nM)

Prompt: So what does the record say about EC50 for CCCCCC(O)c1ccc(N2C(=O)CC[C@@H]2COCc2ccc(C(=O)O)s2)cc1 (some centres unmarked) [Example 9] ?
Completion: 403

Prompt: So what does the record say about EC50 for CCCCCCC(O)c1ccc(N2C(=O)CC[C@@H]2COCc2ccc(C(=O)O)s2)cc1 (some centres unmarked) [Example 13] ?
Completion: 519

---

biological target: EP2 (Homo sapiens); test: EP2 cAMP assay
Sequence (P43116 whole entry): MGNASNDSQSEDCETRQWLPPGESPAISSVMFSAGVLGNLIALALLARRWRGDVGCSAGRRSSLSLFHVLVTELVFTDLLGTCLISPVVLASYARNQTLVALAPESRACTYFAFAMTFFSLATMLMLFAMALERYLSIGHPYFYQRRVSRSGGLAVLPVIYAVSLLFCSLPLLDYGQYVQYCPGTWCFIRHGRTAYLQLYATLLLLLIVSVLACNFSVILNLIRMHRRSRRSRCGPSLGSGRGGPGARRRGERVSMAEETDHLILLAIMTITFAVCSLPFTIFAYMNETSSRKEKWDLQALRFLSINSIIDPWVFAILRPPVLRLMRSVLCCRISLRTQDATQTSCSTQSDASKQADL
metric-name: EC50 (nM)

P = CCCCCC(O)c1ccc(N2C(=O)CC[C@@H]2COCc2ccc(C(=O)O)s2)cc1 (some centres unmarked)
Q = CCCCCCC(O)c1ccc(N2C(=O)CC[C@@H]2CCCc2ccc(C(=O)O)s2)cc1 (some centres unmarked)
Prompt: Could you tell me which of P and Q has the lower EC50 reading? Write down the label of the entry you select.
Completion: Q

---

target: EP4 receptors (Homo sapiens, UniProt P35408)
Sequence (P35408 whole entry): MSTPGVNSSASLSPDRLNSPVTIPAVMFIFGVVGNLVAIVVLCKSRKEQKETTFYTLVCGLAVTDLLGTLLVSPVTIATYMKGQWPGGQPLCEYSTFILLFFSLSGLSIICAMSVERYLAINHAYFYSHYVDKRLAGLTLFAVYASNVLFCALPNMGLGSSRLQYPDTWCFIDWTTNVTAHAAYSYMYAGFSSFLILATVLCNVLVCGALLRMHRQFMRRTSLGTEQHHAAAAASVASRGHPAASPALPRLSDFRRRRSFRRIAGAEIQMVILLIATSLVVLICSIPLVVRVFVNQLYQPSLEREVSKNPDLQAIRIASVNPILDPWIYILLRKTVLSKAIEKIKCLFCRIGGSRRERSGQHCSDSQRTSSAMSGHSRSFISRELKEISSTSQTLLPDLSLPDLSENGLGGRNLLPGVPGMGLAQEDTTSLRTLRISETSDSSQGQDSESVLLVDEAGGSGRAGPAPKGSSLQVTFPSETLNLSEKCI
metric-name: pKi
pKi (log units): -log10 of the concentration in mol/L.

Prompt: For the record CCCCCCC(O)c1ccc(N2C(=O)CC[C@@H]2COCc2ccc(C(=O)O)s2)cc1 (single isomer, unassigned) , what value of pKi is listed for EP4 receptors (Homo sapiens, UniProt P35408)?
Completion: 5.42

---

target: UniProt:P43116
metric-name: pKi
pKi (log units): -log10 of the concentration in mol/L.

Prompt: For the record CCCCCCC(O)c1ccc(N2C(=O)CC[C@@H]2CCCc2ccc(C(=O)O)s2)cc1 (stereo partly shown) , what value of pKi is listed for UniProt:P43116?
Completion: 8.00
